The measured values listed here are drawn from patent US20230312743A1.

Recorded Kd values for a group of binders are listed next.
Biological target: T1, monomeric soluble human PD-1 extracellular domain (human, UniProt Q15116 25-170)
T1 construct: extracellular domain; also called recombinant human PD-1 extracellular domain
T1 sequence (Q15116 25-170): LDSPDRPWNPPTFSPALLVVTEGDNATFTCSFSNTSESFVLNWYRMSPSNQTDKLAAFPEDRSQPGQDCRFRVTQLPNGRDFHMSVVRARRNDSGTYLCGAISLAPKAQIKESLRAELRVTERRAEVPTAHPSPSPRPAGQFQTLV
Assay: SPR (Biacore 8K), 37 C, antibody captured via anti-human IgG, soluble PD-1 ECD as analyte, single cycle kinetics

binder: humCL19v11 (antibody, human IgG1, V domains shown, hu-VH3 + hu-VL3; human IgG1 kappa isotype) VH: QVQLVQSGSELKKPGASVKVSCKAFGYTFTTYPIEWMRQAPGQGLEWIGNFHPYNDDTKYNEGFTGRFVLSVDKSSTTVYLQISSLKAEDTAVYYCARENYGSHGGFVYWGQGTLVTVSS VL: ENVLTQSPATLSLSPGERATLSCRASSSVISSYLHWYQQKPGQAPRLLIYSTSNLASGIPARFSGSGSGTDYTLTISSLEPEDFAVYYCQQYNSYPLTFGGGTKLEIK
Kd / nM: 52.5
//
binder: humCL19v10 (antibody, human IgG1, V domains shown, hu-VH3 + hu-VL2; human IgG1 kappa isotype) VH: QVQLVQSGSELKKPGASVKVSCKAFGYTFTTYPIEWMRQAPGQGLEWIGNFHPYNDDTKYNEGFTGRFVLSVDKSSTTVYLQISSLKAEDTAVYYCARENYGSHGGFVYWGQGTLVTVSS VL: ENQLTQSPSSLSASVGDRVTITCRASSSVISSYLHWYQQKPGKAPKLLIYSTSNLASGVPSRFSGSGSGTDYTLTISSLQPEDFATYYCQQYRGYPLTFGGGTKLEIK
Kd / nM: 670
//
binder: humCL19v6 (antibody, human IgG1, V domains shown, hu-VH2 + hu-VL2; human IgG1 kappa isotype) VH: QVQLVQSGAEVKKPGASVKVSCKAFGYTFTTYPIEWVRQAPGKGLEWMGNFHPYNDDTKYNEKFQGRVTMTVDKSTTTVYMELSSLRSEDTAVYYCARENYGSHGGFVYWGQGTLVTVSS VL: ENQLTQSPSSLSASVGDRVTITCRASSSVISSYLHWYQQKPGKAPKLLIYSTSNLASGVPSRFSGSGSGTDYTLTISSLQPEDFATYYCQQYRGYPLTFGGGTKLEIK
Kd / nM: 2000
//
binder: humCL19v2 (antibody, human IgG1, V domains shown, hu-VH1 + hu-VL2; human IgG1 kappa isotype) VH: QVQLVQSGAEVKKPGASVKVSCKAFGYTFTTYPIEWMRQAPGKGLEWIGNFHPYNDDTKYNEKFQGRVTLTVDKSSTTVYMELSSLRSEDTAVYYCARENYGSHGGFVYWGQGTLVTVSS VL: ENQLTQSPSSLSASVGDRVTITCRASSSVISSYLHWYQQKPGKAPKLLIYSTSNLASGVPSRFSGSGSGTDYTLTISSLQPEDFATYYCQQYRGYPLTFGGGTKLEIK
Kd / nM: 1010
//
binder: humCL19v4 (antibody, human IgG1, V domains shown, hu-VH1 + hu-VL4; human IgG1 kappa isotype) VH: QVQLVQSGAEVKKPGASVKVSCKAFGYTFTTYPIEWMRQAPGKGLEWIGNFHPYNDDTKYNEKFQGRVTLTVDKSSTTVYMELSSLRSEDTAVYYCARENYGSHGGFVYWGQGTLVTVSS VL: ENVLTQSPATLSLSPGERATLSCRASSSVISSYLHWYQQKPGQAPRLLIYSTSNRATGIPARFSGSGSGTDYTLTISSLEPEDFAVYYCQQYNSYPLTFGGGTKLEIK
Kd / nM: 32
